# assay-remarks: Cmax in Sprague-Dawley rat at 15 mg/kg, po by LC-MS/MS analysis
# Assay type: ADME, organism-based
# conditions: in vivo
assay-metric: Cmax (ng/mL)
Supply the numeric figure in ng/mL, leaving out any unit text.

Name the reported Cmax value associated with the molecule Cc1ccccc1CN1C(=O)C2=C(CCN(Cc3ccccc3)C2)N2CCN=C12 [DORDAVIPRONE] 566

====

# Tested on: DLD-1
# assay-remarks: cells
# conditions: Homo sapiens, DLD-1, 72 h
# Description: Antiproliferative activity against human DLD-1 cells assessed as inhibition of cell growth measured after 72 hrs by CCK-8 method
pIC50 values for the compounds below.
The value called pIC50 is obtained by taking minus log10 of the concentration in mol/L.

| compound | obs-value |
| --- | --- |
| CC(ONC(=O)c1cc(C(F)(F)F)cc(C(F)(F)F)c1)C(=O)Nc1ccc(Cl)cc1 (configuration not stated) | 4.53 |

Name the reported pIC50 value associated with the compound N#Cc1cccc(CN2CCC=C(C(=O)NCc3ccc(C(F)(F)F)cc3)C2)c1 5.51

====

# assay-remarks: Antiproliferative activity against human HCoEpiC cells assessed as inhibition of cell growth measured after 72 hrs by CCK-8 method
# Type: toxicity, cell-based
assay-metric: IC50 at 72 h (µM)
Supply the numeric figure in µM, leaving out any unit text.

| molecule | u | obs-value |
| --- | --- | --- |
| CC(ONC(=O)c1cc(C(F)(F)F)cc(C(F)(F)F)c1)C(=O)Nc1ccc(Cl)cc1 (configuration not stated) | µM | 61.7 |

Name the reported IC50 at 72 h value associated with the molecule N#Cc1cccc(CN2CCC=C(C(=O)NCc3ccc(C(F)(F)F)cc3)C2)c1 75.2

====

# assay-remarks: MRT (0 to 12 hrs) in Sprague-Dawley rat at 5 mg/kg, iv by LC-MS/MS analysis
# Assay type: ADME, organism-based
# conditions: in vivo
assay-metric: MRT last (min)
Supply the numeric figure in min, leaving out any unit text.

Name the reported MRT last value associated with the molecule Cc1ccccc1CN1C(=O)C2=C(CCN(Cc3ccccc3)C2)N2CCN=C12 54

====

# assay-remarks: Tmax in Sprague-Dawley rat at 10 mg/kg, po by LC-MS/MS analysis
# Type: ADME, organism-based
# conditions: in vivo
assay-metric: Tmax (h)
Supply the numeric figure in h, leaving out any unit text.

Name the reported Tmax value associated with the compound N#Cc1cccc(CN2CCC=C(C(=O)NCc3ccc(C(F)(F)F)cc3)C2)c1 5.4

====

# System: SW-620
# assay-remarks: cells
# conditions: Homo sapiens, SW-620, 72 h
# Description: Antiproliferative activity against human SW-620 cells assessed as inhibition of cell growth measured after 72 hrs by CCK-8 method
assay-metric: pIC50
The value called pIC50 is obtained by taking minus log10 of the concentration in mol/L.

| molecule | pIC50 |
| --- | --- |
| N#Cc1cccc(CN2CCC=C(C(=O)NCc3ccc(C(F)(F)F)cc3)C2)c1 | 5.82 |

Name the reported pIC50 value associated with the molecule CC(ONC(=O)c1cc(C(F)(F)F)cc(C(F)(F)F)c1)C(=O)Nc1ccc(Cl)cc1 (configuration not stated) 4.81

====

# assay-remarks: Half life in Sprague-Dawley rat at 10 mg/kg, po by LC-MS/MS analysis
# Format: ADME, organism-based
# conditions: in vivo
assay-metric: half-life (h)
Supply the numeric figure in h, leaving out any unit text.

Name the reported half-life value associated with the compound N#Cc1cccc(CN2CCC=C(C(=O)NCc3ccc(C(F)(F)F)cc3)C2)c1 4.7

====

# assay-remarks: Cmax in Sprague-Dawley rat at 10 mg/kg, iv by LC-MS/MS analysis
# Format: ADME, organism-based
# conditions: in vivo
assay-metric: Cmax (ng/mL)
Supply the numeric figure in ng/mL, leaving out any unit text.

Name the reported Cmax value associated with the compound N#Cc1cccc(CN2CCC=C(C(=O)NCc3ccc(C(F)(F)F)cc3)C2)c1 966

====

# assay-remarks: Metabolic stability in human liver microsomes assessed as intrinsic clearance at 1 uM measured upto 60 mins in presence of NADPH regenerating system by LC-MS/MS analysis
# Type: ADME, Microsome
# conditions: read-out: CLH
assay-metric: CLint scaled at 1 µM (L/h/kg)
Supply the numeric figure in L/h/kg, leaving out any unit text.

Name the reported CLint scaled at 1 µM value associated with the compound N#Cc1cccc(CN2CCC=C(C(=O)NCc3ccc(C(F)(F)F)cc3)C2)c1 12.4

====

# assay-remarks: MRT (0 to 12hrs) in Sprague-Dawley rat at 15 mg/kg, po by LC-MS/MS analysis
# Type: ADME, organism-based
# conditions: in vivo
assay-metric: MRT last (h)
Supply the numeric figure in h, leaving out any unit text.

Name the reported MRT last value associated with the molecule Cc1ccccc1CN1C(=O)C2=C(CCN(Cc3ccccc3)C2)N2CCN=C12 1.5

====

# Test system: HCT-116
# assay-remarks: cells
# conditions: Homo sapiens, HCT-116, 72 h
# Description: Antiproliferative activity against human HCT-116 cells assessed as inhibition of cell growth measured after 72 hrs by CCK-8 method
assay-metric: pIC50
The value called pIC50 is obtained by taking minus log10 of the concentration in mol/L.

| compound | pIC50 |
| --- | --- |
| N#Cc1cccc(CN2CCCC(C(=O)NCc3ccc(Cl)cc3Cl)C2)c1 (stereo not given) | 4.39 |
| O=C(NCCNC(=O)c1cc(C(F)(F)F)cc(C(F)(F)F)c1)c1ccc(Cl)cc1 | 4.11 |
| N#Cc1cccc(CN2CCCC(C(=O)NCc3ccc(C(F)(F)F)cc3)C2)c1 (stereo not given) | 4.69 |
| O=C(Nc1ccc(Cl)cc1)C1CCCN(C(=O)Cc2cc(Cl)ccc2F)C1 (stereo not given) | 4.17 |
| O=C(Nc1cccc(Cl)c1)C1CCCN(C(=O)c2cc(C(F)(F)F)cc(C(F)(F)F)c2)C1 (stereo not given) | 4.52 |
| N#Cc1cccc(CN2CCCC(C(=O)Nc3ccc(Cl)cc3)C2)c1 (stereo not given) | 4.69 |

Name the reported pIC50 value associated with the compound N#Cc1cccc(CN2CCCC(C(=O)NCc3ccc(Cl)c(Cl)c3)C2)c1 (stereo not given) 4.60

Now try N#Cc1cccc(CN2CCC=C(C(=O)Nc3ccc(Cl)cc3)C2)c1 . 5.60

Now try N#Cc1cccc(CN2CCCC(C(=O)NCc3ccc4ccccc4c3)C2)c1 (stereo not given) . 4.32

Now try O=C(Nc1cc(Cl)c(Cl)c(Cl)c1)C1CCCN(C(=O)c2cc(C(F)(F)F)cc(C(F)(F)F)c2)C1 (stereo not given) . 4.79

====

# assay-remarks: Half life in Sprague-Dawley rat at 5 mg/kg, iv by LC-MS/MS analysis
# conditions: in vivo
assay-metric: half-life
# number then unit; no other words

Name the reported half-life value associated with the compound Cc1ccccc1CN1C(=O)C2=C(CCN(Cc3ccccc3)C2)N2CCN=C12 54 min

====

# assay-remarks: Cmax in Sprague-Dawley rat at 10 mg/kg, po by LC-MS/MS analysis
# Assay type: ADME, organism-based
# conditions: in vivo
assay-metric: Cmax (ng/mL)
Supply the numeric figure in ng/mL, leaving out any unit text.

Name the reported Cmax value associated with the compound N#Cc1cccc(CN2CCC=C(C(=O)NCc3ccc(C(F)(F)F)cc3)C2)c1 137

====

# assay-remarks: Half life in Sprague-Dawley rat at 15 mg/kg, po by LC-MS/MS analysis
# conditions: in vivo
assay-metric: half-life (h)
Supply the numeric figure in h, leaving out any unit text.

Name the reported half-life value associated with the compound Cc1ccccc1CN1C(=O)C2=C(CCN(Cc3ccccc3)C2)N2CCN=C12 [DORDAVIPRONE] 1.1

====

pIC50 values for the compounds below.
# System: HCT-116
# assay-remarks: cells
# conditions: Homo sapiens, HCT-116, 72 h
The value called pIC50 is obtained by taking minus log10 of the concentration in mol/L.

Some compounds with known pIC50 results, for comparison:
| compound | system-name | pIC50 |
| --- | --- | --- |
| O=C(NCc1ccc(C(F)(F)F)cc1)C1=CCCN(C(=O)c2cc(C(F)(F)F)cc(C(F)(F)F)c2)C1 | HCT-116 | 4.69 |
| N#Cc1cccc(CN2CCCC(C(=O)NCc3ccc(Cl)cc3)C2)c1 (configuration not stated) | HCT-116 | 4.66 |
| O=C(Nc1ccc(C(F)(F)F)cc1)C1CCCN(C(=O)c2cc(C(F)(F)F)cc(C(F)(F)F)c2)C1 (configuration not stated) | HCT-116 | 4.52 |
| CC(C)(C)c1ccc(CNC(=O)C2CCCN(Cc3cccc(C#N)c3)C2)cc1 (configuration not stated) | HCT-116 | 4.40 |
| N#Cc1cccc(CN2CCC=C(C(=O)NCc3ccc(C(F)(F)F)cc3)C2)c1 | HCT-116 | 6.00 |

Name the reported pIC50 value associated with the compound O=C(NCc1ccc(C(F)(F)F)cc1)C1=CCCN(Cc2cc(C(F)(F)F)cc(C(F)(F)F)c2)C1 4.60

Now try O=C(Nc1ccc(Cl)c(Cl)c1)C1CCCN(C(=O)c2cc(C(F)(F)F)cc(C(F)(F)F)c2)C1 (configuration not stated) . 4.80

Now try O=C(NCc1ccc(C(F)(F)F)cc1)C1=CCCN(Cc2ccccc2)C1 . 4.30

Now try O=C(Nc1ccc(Cl)cc1)C1=CCCN(C(=O)c2cc(C(F)(F)F)cc(C(F)(F)F)c2)C1 . 4.39
